biological target: UniProt P23975
Sequence (P23975 whole entry): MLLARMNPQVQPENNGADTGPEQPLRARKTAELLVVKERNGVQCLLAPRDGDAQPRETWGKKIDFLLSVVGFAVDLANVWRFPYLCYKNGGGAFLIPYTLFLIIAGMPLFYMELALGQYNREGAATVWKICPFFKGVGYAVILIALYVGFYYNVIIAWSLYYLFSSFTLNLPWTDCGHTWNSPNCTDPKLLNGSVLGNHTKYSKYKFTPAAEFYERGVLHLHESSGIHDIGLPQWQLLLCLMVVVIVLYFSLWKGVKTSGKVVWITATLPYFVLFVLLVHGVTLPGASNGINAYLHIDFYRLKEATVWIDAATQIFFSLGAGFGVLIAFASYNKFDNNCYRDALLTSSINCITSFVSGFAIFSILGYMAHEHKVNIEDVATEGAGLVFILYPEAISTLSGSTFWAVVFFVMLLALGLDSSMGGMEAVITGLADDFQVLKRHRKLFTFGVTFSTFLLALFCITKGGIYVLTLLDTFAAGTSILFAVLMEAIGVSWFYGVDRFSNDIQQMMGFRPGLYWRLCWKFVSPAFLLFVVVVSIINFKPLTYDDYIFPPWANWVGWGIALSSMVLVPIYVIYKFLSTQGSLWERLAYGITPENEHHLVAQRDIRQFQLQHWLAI
READOUT_TYPE: Ki (nM)
// note: answer is a bare numeric in nM

Item COC(=O)C1C2CCC(CC1c1ccc(/C=C\I)cc1)N2 (stereo unspecified) has what recorded Ki?
15
